- Target Entity: Cytochrome P450 3A4 (Homo sapiens) (UniProt P08684)
- Sequence (P08684 whole entry, looked up): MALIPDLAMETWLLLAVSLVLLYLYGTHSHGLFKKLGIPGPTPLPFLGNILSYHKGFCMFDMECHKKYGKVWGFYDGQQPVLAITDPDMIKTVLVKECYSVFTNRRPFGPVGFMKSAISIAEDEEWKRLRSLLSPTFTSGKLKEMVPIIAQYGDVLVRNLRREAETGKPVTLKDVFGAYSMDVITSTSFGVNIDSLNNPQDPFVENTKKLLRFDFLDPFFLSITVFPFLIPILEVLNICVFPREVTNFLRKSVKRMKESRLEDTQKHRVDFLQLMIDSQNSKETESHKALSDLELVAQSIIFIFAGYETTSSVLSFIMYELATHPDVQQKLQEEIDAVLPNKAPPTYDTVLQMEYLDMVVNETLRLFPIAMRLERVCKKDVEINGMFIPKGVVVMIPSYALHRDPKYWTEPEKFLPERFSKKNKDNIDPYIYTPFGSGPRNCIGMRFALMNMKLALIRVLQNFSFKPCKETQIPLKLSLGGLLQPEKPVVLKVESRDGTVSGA
- Method Notes: qHTS Assay for Inhibitors and Substrates of Cytochrome P450 3A4 (AID 884); further: nearly all actives have a fitted effect of over 50% in size
- Condition Label: recombinant CYP3A4, Luciferin-PPXE luminescence; series mostly up to 57.1 µM
Inconclusive results are not listed. The source made the active and inactive calls. The call rests on the fitted dose curve; in most records, active means well fitted inhibition curve with a large enough effect; inconclusive means small, poorly fitted or top-dose-only effect; inactive means no such curve, though single readings can be large or run the other way.
Use one of these outcomes when replying: active, inactive

The examples below pair each entry with its known result.
>  <Compound>
N#Cc1ccc(C23CC4(C2)[C@H](CN(Cc2ccc(C(F)(F)F)cc2)[C@@H]4c2ccccc2)C3c2ccc(Cl)nc2)cc1 (stereo partly drawn)

>  <Label>
inactive

$$$$
>  <Compound>
COC(=O)N1CC=CC1(C)C(=O)NCC1CC1 (stereo not drawn)

>  <Label>
inactive

$$$$

Read the next record carefully.
**Query** Could you check what this test reported for COC(=O)c1ccc(C(NC(=O)OCc2ccccc2)/C(C)=C/[C@@H](C)C(=O)NCCO)cc1 (stereo partly drawn) ?
**Result** active

* * *

- Target Entity: Glucocorticoid receptor (Homo sapiens) (UniProt P04150)
- Sequence (P04150 whole entry, looked up): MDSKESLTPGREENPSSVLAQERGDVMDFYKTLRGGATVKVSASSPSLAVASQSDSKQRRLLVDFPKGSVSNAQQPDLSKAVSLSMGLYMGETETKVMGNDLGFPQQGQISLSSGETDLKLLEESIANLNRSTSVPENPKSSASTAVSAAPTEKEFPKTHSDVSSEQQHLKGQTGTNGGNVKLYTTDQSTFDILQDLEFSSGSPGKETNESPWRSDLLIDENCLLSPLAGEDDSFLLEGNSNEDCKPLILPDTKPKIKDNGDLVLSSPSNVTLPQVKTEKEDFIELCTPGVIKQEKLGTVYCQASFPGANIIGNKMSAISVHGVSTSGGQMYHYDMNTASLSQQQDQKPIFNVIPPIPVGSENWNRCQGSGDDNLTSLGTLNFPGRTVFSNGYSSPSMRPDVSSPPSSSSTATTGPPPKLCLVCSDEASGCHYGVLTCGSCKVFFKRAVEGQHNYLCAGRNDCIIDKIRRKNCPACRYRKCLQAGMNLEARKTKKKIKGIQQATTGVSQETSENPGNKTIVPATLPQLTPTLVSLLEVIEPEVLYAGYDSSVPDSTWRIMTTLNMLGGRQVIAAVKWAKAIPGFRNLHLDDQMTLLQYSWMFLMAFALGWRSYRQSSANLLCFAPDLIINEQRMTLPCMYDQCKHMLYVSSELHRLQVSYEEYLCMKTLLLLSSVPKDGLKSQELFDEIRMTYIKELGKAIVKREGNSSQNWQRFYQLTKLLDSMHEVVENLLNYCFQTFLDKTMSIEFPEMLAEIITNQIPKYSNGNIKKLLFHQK
- Method Notes: qHTS assay for small molecule agonists of glucocorticoid receptor signaling (AID 588532);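 further: 100% = dexamethasone at 0.1 µM and 0% = DMSO only wells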
- Condition Label: HeLa MMTV-bla, beta-lactamase ratio, agonist, 18 h; active compounds read high; percent of dexamethasone control, DMSO zero
Inconclusive results are not listed.
Examples of compounds with documented activation follow.
Numbers only; they are read as %.

>  <Compound>
c1ccc(OCCOc2ccccc2)cc1

>  <Readout Number>
-7.01

$$$$
>  <Compound>
C1=C/CC/C=C/CC/C=C/CC/1

>  <Readout Number>
2.01

$$$$
>  <Compound>
C[Si](Cl)(Cl)[Si](C)(Cl)Cl

>  <Readout Number>
-3.8

$$$$

**Query** Specify reported activation for the compound shown: "CCCCCCCOC(=O)c1ccccc1C(=O)OCCCCCCC"
**Result** -3.48

**Query** Specify reported activation for the compound shown: "OCCOCCOCCOCCO"
**Result** -2.94

**Query** Specify reported activation for the compound shown: "CSC(=O)c1cccc2nnsc12"
**Result** -11.5

**Query** Specify reported activation for the compound shown: "c1cc(-c2ccncc2)ccn1"
**Result** -9.26

**Query** Specify reported activation for the compound shown: "O=C(O)CCCCCCC(=O)O"
**Result** -13.8

**Query** Specify reported activation for the compound shown: "C=CC(=O)OCCOc1ccccc1"
**Result** -7.33

**Query** Specify reported activation for the compound shown: "CCOC(=O)[C@H](C)Oc1ccc(Oc2nc3ccc(Cl)cc3o2)cc1"
**Result** 0.281

**Query** Specify reported activation for the compound shown: "COC(=O)c1ccc(CNS(C)(=O)=O)cc1S(=O)(=O)NC(=O)Nc1nc(OC)cc(OC)n1"
**Result** -4.55

* * *

- Method Notes: qHTS assay for small molecule agonists of the antioxidant response element (ARE) signaling pathway measured by Nrf2-dependant transcriptional activity - cell viability counter screen (AID 720653); further: on the % scale 0 is the no-effect control and ±100 the full control effect
- Condition Label: ARE-bla HepG2 viability, CellTiter-Glo ATP luminescence, 16 h; active compounds read low
Inconclusive results are not listed.
Quantity Name: max response (%)
Numbers only; they are read as %.

>  <Compound>
Cc1ccc(N=Nc2c(O)ccc3ccccc23)c(C)c1

>  <max response [%]>
-17.4

$$$$
>  <Compound>
CO[Si](OC)(OC)c1ccccc1

>  <max response [%]>
-0.0462

$$$$
>  <Compound>
CC1(C)[C@@H](C=C(Cl)Cl)[C@@H]1C(=O)OCc1cccc(Oc2ccccc2)c1

>  <max response [%]>
-5.58

$$$$
>  <Compound>
CCCCCCCC[Si](OCC)(OCC)OCC

>  <max response [%]>
5.53

$$$$

**Query** Specify reported max response for the compound shown: "COC(=O)c1ccc(C(=O)OC)cc1"
**Result** -4.69

**Query** Specify reported max response for the compound shown: "COc1nc(C)nc(NC(=O)NS(=O)(=O)c2ccccc2OCCCl)n1"
**Result** 14.8

**Query** Specify reported max response for the compound shown: C/C(=C\C(C)CC(C)CC(C)C)C1CC(=O)OC1=O (stereo not drawn)
**Result** -17.9

**Query** Specify reported max response for the compound shown: CCCCOCC(C)OCC(C)O (stereo not drawn)
**Result** 8.96

**Query** Specify reported max response for the compound shown: "CCCCCCCCCCCCCCCCN(C)C"
**Result** -13
